# protocolDetails: Phase 1 digoxin-isavuconazole interaction study, plasma PK
# Format: in vivo, human
# conditionParameters: human, plasma, oral, 200 mg
reportedEndpoint: AUC (µg·h/mL)
Give just the numeric value; µg·h/mL need not be written.

Please report the recorded AUC for C[C@@H](c1nc(-c2ccc(C#N)cc2)cs1)[C@](O)(Cn1cncn1)c1cc(F)ccc1F [Isavuconazole, isavuconazole] . 102

----------
# protocolDetails: Phase 1 methotrexate-isavuconazole interaction study, plasma PK
# Type: in vivo, human
# conditionParameters: human, plasma, po, 7.5 mg
reportedEndpoint: AUC(0-inf) (ng·h/mL)
The response must be a number in ng·h/mL with no trailing unit.

Suppose we examine the molecule CN(Cc1cnc2nc(N)nc(N)c2n1)c1ccc(C(=O)N[C@@H](CCC(=O)O)C(=O)O)cc1 [Methotrexate, methotrexate] ; what AUC(0-inf) value has been reported? 620

----------
# protocolDetails: Phase 1 atorvastatin-isavuconazole interaction study, plasma PK
# conditionParameters: human, oral, 200 mg
reportedEndpoint: Tmax (h)
// return numeric value only (unit: h, not printed)

// returns reported Tmax for input C[C@@H](c1nc(-c2ccc(C#N)cc2)cs1)[C@](O)(Cn1cncn1)c1cc(F)ccc1F 3

----------
# protocolDetails: Phase 1 digoxin-isavuconazole interaction study, plasma PK
# Format: in vivo, human
# conditionParameters: human, plasma, oral, 0.5 mg
reportedEndpoint: AUC(0-t) (ng·h/mL)
Your answer should be a plain number; it is taken to be in ng·h/mL.

Which AUC(0-t) value belongs to C[C@H]1O[C@@H](O[C@H]2[C@@H](O)C[C@H](O[C@H]3[C@@H](O)C[C@H](O[C@H]4CC[C@@]5(C)[C@H](CC[C@@H]6[C@@H]5C[C@@H](O)[C@]5(C)[C@@H](C7=CC(=O)OC7)CC[C@]65O)C4)O[C@@H]3C)O[C@@H]2C)C[C@H](O)[C@@H]1O [Digoxin, digoxin] ? 32.9

----------
# protocolDetails: Phase 1 methotrexate-isavuconazole interaction study, plasma PK
# Type: in vivo, human
# conditionParameters: human, plasma, oral, 200 mg
reportedEndpoint: Cmax (ng/mL)
Please give a number only; it is taken to be in ng/mL.

Record request: Cmax value, item C[C@@H](c1nc(-c2ccc(C#N)cc2)cs1)[C@](O)(Cn1cncn1)c1cc(F)ccc1F 6200

----------
# protocolDetails: Phase 1 metformin-isavuconazole interaction study, plasma PK
# conditionParameters: human, plasma, oral, 200 mg
reportedEndpoint: Tmax

Value lookup for Tmax; key = C[C@@H](c1nc(-c2ccc(C#N)cc2)cs1)[C@](O)(Cn1cncn1)c1cc(F)ccc1F 3 h

----------
# protocolDetails: Phase 1 atorvastatin-isavuconazole interaction study, plasma PK
# conditionParameters: human, oral, 200 mg
reportedEndpoint: AUC
Your reply should be a number followed by the unit it is expressed in.

Need AUC, item C[C@@H](c1nc(-c2ccc(C#N)cc2)cs1)[C@](O)(Cn1cncn1)c1cc(F)ccc1F [Isavuconazole, isavuconazole] 77300 ng·h/mL

----------
# protocolDetails: Phase 1 digoxin-isavuconazole interaction study, plasma PK
# Format: in vivo, human
# conditionParameters: human, plasma, oral, 200 mg
reportedEndpoint: Cmax (ng/mL)
Quick reminder: number only, in ng/mL, skip the unit.

For the compound shown here, C[C@@H](c1nc(-c2ccc(C#N)cc2)cs1)[C@](O)(Cn1cncn1)c1cc(F)ccc1F , give the reported Cmax. 6100

----------
# protocolDetails: Phase 1 metformin-isavuconazole interaction study, plasma PK
# conditionParameters: human, plasma, oral, 850 mg
reportedEndpoint: AUC(0-t) (ng·h/mL)
Response body: numeric value in ng·h/mL, unit text excluded.

Param item = CN(C)C(=N)N=C(N)N ; retrieve measured AUC(0-t). 9120

----------
# protocolDetails: Phase 1 digoxin-isavuconazole interaction study, plasma PK
# Type: in vivo, human
# conditionParameters: human, plasma, oral, 200 mg
reportedEndpoint: Tmax
Answer format reminder: number followed by unit.

Dear colleague, I am looking for the recorded Tmax of the following molecule: C[C@@H](c1nc(-c2ccc(C#N)cc2)cs1)[C@](O)(Cn1cncn1)c1cc(F)ccc1F 3 h

----------
# protocolDetails: Phase 1 digoxin-isavuconazole interaction study, plasma PK
# Assay type: in vivo, human
# conditionParameters: human, plasma, po, 0.5 mg
reportedEndpoint: AUC(0-inf)
In your response, the unit should come after the numeric value.

Form field: reported AUC(0-inf) of C[C@H]1O[C@@H](O[C@H]2[C@@H](O)C[C@H](O[C@H]3[C@@H](O)C[C@H](O[C@H]4CC[C@@]5(C)[C@H](CC[C@@H]6[C@@H]5C[C@@H](O)[C@]5(C)[C@@H](C7=CC(=O)OC7)CC[C@]65O)C4)O[C@@H]3C)O[C@@H]2C)C[C@H](O)[C@@H]1O [Digoxin, digoxin] 34.4 ng·h/mL

----------
# protocolDetails: Phase 1 methotrexate-isavuconazole interaction study, plasma PK
# Type: in vivo, human
# conditionParameters: human, plasma, oral, 7.5 mg
reportedEndpoint: Cmax (ng/mL)
Write the value in ng/mL as a bare number.

Quick check: Cmax of CN(Cc1cnc2nc(N)nc(N)c2n1)c1ccc(C(=O)N[C@@H](CCC(=O)O)C(=O)O)cc1 [Methotrexate, methotrexate] ? 156

----------
# protocolDetails: Phase 1 methotrexate-isavuconazole interaction study, plasma PK
# Type: in vivo, human
# conditionParameters: human, plasma, oral, 7.5 mg
reportedEndpoint: Tmax (h)
Reply with just the number (in h).

Tell me the measured Tmax of CN(Cc1cnc2nc(N)nc(N)c2n1)c1ccc(C(=O)N[C@@H](CCC(=O)O)C(=O)O)cc1 [Methotrexate, methotrexate] , please. 1

----------
# protocolDetails: Phase 1 metformin-isavuconazole interaction study, plasma PK
# conditionParameters: human, plasma, oral, 200 mg
reportedEndpoint: Cmax (ng/mL)
Could you give me the number in ng/mL? Just the number is fine.

Data request, read-out Cmax, for C[C@@H](c1nc(-c2ccc(C#N)cc2)cs1)[C@](O)(Cn1cncn1)c1cc(F)ccc1F [Isavuconazole, isavuconazole] 7100

----------
# protocolDetails: Phase 1 atorvastatin-isavuconazole interaction study, plasma PK
# conditionParameters: human, oral, 200 mg
reportedEndpoint: Cmax (ng/mL)
Your answer should be a plain number; it is taken to be in ng/mL.

Sample C[C@@H](c1nc(-c2ccc(C#N)cc2)cs1)[C@](O)(Cn1cncn1)c1cc(F)ccc1F [Isavuconazole, isavuconazole] — what was its Cmax? 5300

----------
# protocolDetails: Phase 1 methotrexate-isavuconazole interaction study, plasma PK
# Type: in vivo, human
# conditionParameters: human, plasma, oral, 200 mg
reportedEndpoint: AUC (ng·h/mL)
Report the figure in ng·h/mL without appending any unit label.

// lookup AUC for C[C@@H](c1nc(-c2ccc(C#N)cc2)cs1)[C@](O)(Cn1cncn1)c1cc(F)ccc1F 99400

----------
# protocolDetails: Phase 1 digoxin-isavuconazole interaction study, plasma PK
# Assay type: in vivo, human
# conditionParameters: human, plasma, oral, 0.5 mg
reportedEndpoint: half-life (h)
Hi! Could you send only the number? It should be in h, unit omitted.

Quick check: half-life of C[C@H]1O[C@@H](O[C@H]2[C@@H](O)C[C@H](O[C@H]3[C@@H](O)C[C@H](O[C@H]4CC[C@@]5(C)[C@H](CC[C@@H]6[C@@H]5C[C@@H](O)[C@]5(C)[C@@H](C7=CC(=O)OC7)CC[C@]65O)C4)O[C@@H]3C)O[C@@H]2C)C[C@H](O)[C@@H]1O [Digoxin, digoxin] ? 40.9
